Biological target: SARS-CoV-2 spike protein, B1.1.7 (alpha variant), borne on lentiviral pseudovirus (SARS-CoV-2, B1.1.7)
Assay: cell-based or functional assay
We use 200 pM as the dividing line for Pseudo Neut, B1.1.7 IC50 (pM): on or above the line is Criterion met, below is Criterion not met.

antibody 2564 (antibody, V domains shown) VH: QVQLVQSGAEVKKPGSSVRVSCKASGGTFISYTFNWVRQAPGQGLEWMGRIIPIFGIVNYAQKFQGRVTIAADKSTSTAYMELSSLRSEDTAMYYCATATVDYDSGEEQSSFDPWGQGTLVTVSS VL: EIVLTQSPGTLSLSPGERATLSCRASQSVSSSYLAWYQQKAGQTPRLLIYAASSRATGVPDRFSGSGSGTDFTLTISRLEAEDFAVYYCQQSWTFGQGTKVEIK : Criterion not met
antibody 935 (antibody, V domains shown) VH: EVQLVESGGGLVQPGGSLRLSCAASGFTVSSNYMSWVRQAPGKGLEWVSVIYSGGSTFYADSVKGRFTISRDNSRNTLYLQMNSLRAEDTAVYYCARDWGEFFFDFWGQGALVTVSS VL: EIVLTQSPGTLSLSPGERATLSCRASQTISSSYLAWYQQKPGQAPRLLISGASSRATGIPDRFSGSGSGTDFTLTISRLEPEDFAVYYCQQYGSSPRTFGQGTNVEIK : Criterion met
antibody 1814 (antibody, V domains shown) VH: QVQLQESGPGLVKPSETLSLTCSVSGGSINYYYWSWIRQTPGQGLEWIGFIYSSGTTNYNPSLKSRVTMSKDTAKKQFSLKLTSVTAADSAVYYCARHSRSCTNGVCQTYYYYALDVWGHGTTVTVSS VL: QSVLTQPPSVSGAPGQRVTISCTGSGSNIGSGYDVHWYQQLPGRAPKLLIYRNRNRPSGVPDRFSGSKSGTSASLAIAGLQSEDEGDYFCQSYDGRLGESAVFGGGTRLTVL : Criterion met
antibody 2706 (antibody, V domains shown) VH: QVQLVQSGAEVKKPGSSVKVSCKASGGTFSTYAISWVRQAPGQGLEWMGGIIPLFATANYAQNFQGRVTITADKSTSTAYMELSSLRSEDTAVYYCASVRLHLEELSLSHQGDYYYGLDVWGQGTTVTVSS VL: DIQMTQSPSSLSASVADRVTITCQASQDISHYLNWYQQKPGKAPQLLIYDASKLETGAPSRFSGSGSGTDFTFTISSLQPEDIATYYCQQYDHLPLTFGGGSKVEIK : Criterion not met

Could you now look at the following binder, please?
Given antibody 1859 (antibody, V domains shown) VH: EVQLVESGGGLVKPGGSLRLSCAASGFSFNTYTMNWVRQAPGKGLEWVSYISSSSSYKYYSDSVKGRFSVSRDNAKKSLYLQMNGLRAEDTAVYYCARDGYCPNGVCTYYGMDVWGQGTTVTVSL VL: EIVMTQSPATLSVSPGERATLSCRASQSVSSNLAWYQQKPGQAPRLLIYGASTRATGIPARFSGSGSGTEFTLTISGLQSEDFAVYFCQQYSKWPPAYTFGQGTKLEIK , state whether its Pseudo Neut, B1.1.7 IC50 (pM) is at least 200 pM.
Criterion met
